Source listed as ChEMBL document CHEMBL1759997.

- measuredOn: Melanocortin receptor 3 (Homo sapiens, UniProt P41968)
- Sequence (P41968 whole entry): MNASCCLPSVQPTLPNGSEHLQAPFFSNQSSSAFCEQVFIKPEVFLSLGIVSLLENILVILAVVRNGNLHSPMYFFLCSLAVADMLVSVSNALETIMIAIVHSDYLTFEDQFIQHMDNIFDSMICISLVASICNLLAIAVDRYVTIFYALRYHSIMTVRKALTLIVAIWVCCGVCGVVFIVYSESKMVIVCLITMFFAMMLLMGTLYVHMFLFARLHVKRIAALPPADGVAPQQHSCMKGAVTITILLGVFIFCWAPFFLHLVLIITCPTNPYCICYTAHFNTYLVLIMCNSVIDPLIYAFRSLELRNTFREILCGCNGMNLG
- assay: Agonist activity at human MC3 receptor expressed in CHO cells assessed as cAMP accumulation at 10 uM relative to alpha-MSH
- Assay type: functional, cell-based
endpoint: Activity
Don't forget the unit after the number, please.

The cases that follow already have their Activity on record.
C[C@H]1CN(C(=O)N[C@H](Cc2ccc(F)cc2)C(=O)N2CCC(C(=O)NC(C)(C)C)(C3CCCCC3)CC2)C[C@H](C)N1; 2%
C[C@@H]1CN(C(=O)N[C@H](Cc2ccc(F)cc2)C(=O)N2CCC(C(=O)NC(C)(C)C)(C3CCCCC3)CC2)C[C@@H](C)N1; 2.8%
C[C@@H]1CN(C(=O)N[C@H](Cc2ccc(F)cc2)C(=O)N2CCC(C(=O)NC(C)(C)C)(C3CCCCC3)CC2)C[C@H](C)N1; 3.6%

Could you now consider this next compound?
Bench note: what Activity did CC[C@@H]1CN(C(=O)N[C@H](Cc2ccc(F)cc2)C(=O)N2CCC(C(=O)NC(C)(C)C)(C3CCCCC3)CC2)C[C@@H](CC)N1 show?
0%
